Numbers sourced from ChEMBL document CHEMBL2218924.

Molecular target: Interleukin-1 receptor-associated kinase 4 (Homo sapiens)
Conditions: at 10 µM
Reported residual activity by item:
MEASURED METRIC: residual activity (%)

1) O=C(O)c1ccc2c3c1cccc3c(=O)n1c3ccccc3nc21	89
2) CCC(=O)Nc1ccc2ncnc(Nc3cccc(Br)c3)c2c1	91
3) O=C1NC(=O)/C(=C\c2ccc3nccnc3c2)S1	91
4) Oc1n[nH]c2nnc(-c3c(-c4ccccc4)nn4ccccc34)cc12	89
5) Cc1nc(-c2ccccc2)c(-c2ccncc2)o1	88

* * *

Molecular target: Dual specificity mitogen-activated protein kinase kinase 7 (Homo sapiens) (UniProt O14733)
Sequence (O14733 whole entry): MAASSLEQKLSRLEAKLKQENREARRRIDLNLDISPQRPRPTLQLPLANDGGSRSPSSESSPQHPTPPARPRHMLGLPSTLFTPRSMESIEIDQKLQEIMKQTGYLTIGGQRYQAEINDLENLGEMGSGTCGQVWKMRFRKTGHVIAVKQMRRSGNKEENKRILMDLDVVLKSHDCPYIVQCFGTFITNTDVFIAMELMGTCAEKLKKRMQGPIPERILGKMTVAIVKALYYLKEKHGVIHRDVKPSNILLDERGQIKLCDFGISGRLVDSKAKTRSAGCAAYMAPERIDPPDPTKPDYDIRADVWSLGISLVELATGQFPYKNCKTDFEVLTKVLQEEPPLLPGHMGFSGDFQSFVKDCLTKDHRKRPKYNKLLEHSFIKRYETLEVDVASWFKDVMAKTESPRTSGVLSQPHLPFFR
Details: at 1 µM
MEASURED METRIC: residual activity (%)

1. Oc1ccc(-c2nc(-c3ccc(F)cc3)c(-c3ccncc3)[nH]2)cc1	80
2. COc1ccc(OC)c2c(=S)c3ccccc3[nH]c12	81
3. COc1ccc(C(=O)Nc2sc3c(c2C(N)=O)CCCC3)cc1OC	90
4. Nc1cccc(-c2cc3c(Oc4cccc(O)c4)ncnc3[nH]2)c1	80
5. COc1cc2ncnc(Nc3ccc(NC(=O)c4ccccc4)cc3)c2cc1OC	92
6. CO[C@H]1[C@@H](OC)C[C@H](C)[C@@H](OC)C2=CC(=O)C=C(NC(=O)/C(C)=C/C=C/[C@H](OC)[C@@H](OC(N)=O)/C(C)=C/[C@@H]1C)C2=O	92

* * *

Target: ALK tyrosine kinase receptor (Homo sapiens) (UniProt Q9UM73)
Sequence (Q9UM73 19-1620 limits assumed): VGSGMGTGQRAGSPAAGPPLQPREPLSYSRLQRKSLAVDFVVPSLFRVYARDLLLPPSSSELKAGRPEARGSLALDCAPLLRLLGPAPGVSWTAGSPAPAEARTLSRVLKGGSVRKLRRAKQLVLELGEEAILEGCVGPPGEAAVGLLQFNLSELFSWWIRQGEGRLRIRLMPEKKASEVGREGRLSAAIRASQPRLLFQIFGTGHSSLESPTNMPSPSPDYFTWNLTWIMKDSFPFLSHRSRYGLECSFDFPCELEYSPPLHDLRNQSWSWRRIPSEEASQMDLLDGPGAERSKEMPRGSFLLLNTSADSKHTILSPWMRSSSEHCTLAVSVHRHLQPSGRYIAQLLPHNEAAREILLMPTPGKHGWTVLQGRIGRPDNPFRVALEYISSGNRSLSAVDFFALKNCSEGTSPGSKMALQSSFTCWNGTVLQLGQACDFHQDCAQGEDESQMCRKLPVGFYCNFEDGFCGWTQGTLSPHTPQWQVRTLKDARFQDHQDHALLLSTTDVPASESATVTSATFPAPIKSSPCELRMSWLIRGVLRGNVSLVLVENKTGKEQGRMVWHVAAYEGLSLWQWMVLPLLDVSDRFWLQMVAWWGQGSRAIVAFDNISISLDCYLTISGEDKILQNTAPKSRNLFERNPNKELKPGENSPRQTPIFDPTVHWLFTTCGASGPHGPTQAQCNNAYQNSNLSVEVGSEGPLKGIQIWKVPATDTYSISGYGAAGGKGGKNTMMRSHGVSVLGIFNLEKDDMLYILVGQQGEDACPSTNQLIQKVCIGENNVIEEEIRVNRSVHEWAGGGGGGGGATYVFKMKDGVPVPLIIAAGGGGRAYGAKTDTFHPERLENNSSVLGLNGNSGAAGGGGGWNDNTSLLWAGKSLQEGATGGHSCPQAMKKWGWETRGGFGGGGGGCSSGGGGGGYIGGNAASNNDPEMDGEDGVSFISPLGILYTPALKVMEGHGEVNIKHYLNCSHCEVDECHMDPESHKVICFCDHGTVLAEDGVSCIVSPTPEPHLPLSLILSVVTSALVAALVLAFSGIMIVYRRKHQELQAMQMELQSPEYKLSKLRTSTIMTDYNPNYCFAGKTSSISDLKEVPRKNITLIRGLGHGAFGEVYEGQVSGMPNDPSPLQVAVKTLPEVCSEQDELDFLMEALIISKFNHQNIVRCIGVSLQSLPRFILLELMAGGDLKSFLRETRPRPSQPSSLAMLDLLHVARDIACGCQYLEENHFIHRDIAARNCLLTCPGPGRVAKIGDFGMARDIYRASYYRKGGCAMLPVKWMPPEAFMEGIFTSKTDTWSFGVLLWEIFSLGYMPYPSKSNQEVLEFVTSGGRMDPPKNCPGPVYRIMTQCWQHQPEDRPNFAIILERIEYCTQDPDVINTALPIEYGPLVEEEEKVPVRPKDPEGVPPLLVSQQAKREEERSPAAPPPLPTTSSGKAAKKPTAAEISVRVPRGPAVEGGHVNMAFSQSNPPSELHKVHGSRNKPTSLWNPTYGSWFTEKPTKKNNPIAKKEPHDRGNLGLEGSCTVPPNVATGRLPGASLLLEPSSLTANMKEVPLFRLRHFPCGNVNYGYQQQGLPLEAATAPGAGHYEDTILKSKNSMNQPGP
Details: at 1 µM
# binning rule on residual activity: c1 = under 60%, c2 = from 60% up to 80%, c3 = 80% and over

1. CCN(CC)CCCCN1c2ccccc2Oc2ccc(Cl)cc21	c3
2. Nc1cccc(-c2cc3c(Oc4cccc(O)c4)ncnc3[nH]2)c1	c1
3. COc1ccc(C(=O)Nc2sc3c(c2C(N)=O)CCCC3)cc1OC	c1
4. O=C(O)c1ccc2c3c1cccc3c(=O)n1c3ccccc3nc21	c2
5. COc1cccc(-c2cc(=O)c3ccccc3o2)c1N	c3
6. N#CC(C#N)=C(N)/C(C#N)=C/c1ccc(O)cc1	c3
7. O=C1Nc2ccccc2/C1=C1/Nc2ccccc2/C1=N\OCCC(O)CO (stereo not given)	c1
8. CO[C@@H]1[C@H](N(C)C(=O)c2ccccc2)C[C@H]2O[C@]1(C)n1c3ccccc3c3c4c(c5c6ccccc6n2c5c31)C(=O)NC4	c1
9. COc1cc2ncnc(Nc3ccc(O)c(Br)c3)c2cc1OC	c1
10. NC(=O)c1ccc2[nH]c(-c3ccc(Oc4ccc(Cl)cc4)cc3)nc2c1	c2
11. O=C1NC(=O)/C(=C/c2ccc3c(c2)OC(F)(F)O3)S1	c2

* * *

Molecular target: AMP-activated protein kinase, AMPK (Homo sapiens) (UniProt P54646+O43741+P54619+Q9UGJ0+Q9Y478+Q13131+Q9UGI9)
Details: at 10 µM
# binning rule on residual activity: zone 1: < 30%; zone 2: ≥ 30% and < 70%; zone 3: ≥ 70%

1) CCN(CC)C(=O)c1ccc(Nc2nc(OCC3CCCCC3)c3nc[nH]c3n2)cc1	zone 1
2) CCOc1cc2ncnc(Nc3cccc(Br)c3)c2cc1OCC	zone 2
3) CO[C@@H]1[C@H](N(C)C(=O)c2ccccc2)C[C@H]2O[C@]1(C)n1c3ccccc3c3c4c(c5c6ccccc6n2c5c31)C(=O)NC4	zone 1
4) O=C1NC(=O)/C(=C\c2ccc3nccnc3c2)S1	zone 2
5) Ic1cccc(CSc2nnc(-c3ccncc3)o2)c1	zone 2
6) Cn1cc(/C=C2\C(=O)Nc3ccc(S(N)(=O)=O)cc32)c2ccccc21	zone 1
7) O=C1Nc2ccccc2/C1=C1/Nc2ccccc2/C1=N\OCCC(O)CO (configuration not stated)	zone 1
8) Nc1cccc(-c2cc3c(Oc4cccc(O)c4)ncnc3[nH]2)c1	zone 1
9) N#C/C(=C(\N)Sc1ccc(N)cc1)c1ccccc1C(F)(F)F	zone 2
10) Cc1ccc(NC2=CC(=O)c3sc(C)nc3C2=O)cc1	zone 3
11) COc1cc2ncc(-c3ccccc3)nc2cc1OC	zone 3
12) C[C@@H](N)[C@H]1CC[C@H](C(=O)Nc2ccncc2)CC1	zone 3
13) Nc1ccc2ncnc(NCCc3ccc(Oc4ccccc4)cc3)c2c1	zone 2
14) O=c1c2ccccc2[nH]c(=S)n1CCN1CCC(=C(c2ccc(F)cc2)c2ccc(F)cc2)CC1	zone 3
15) COc1ccc(S(=O)(=O)N(CCO)c2ccccc2CN(C)C/C=C/c2ccc(Cl)cc2)cc1	zone 3
16) CN(C)c1ccc(/C=C2\C(=O)Nc3ccccc32)cc1	zone 2

* * *

Target: Tyrosine-protein kinase ABL2 (Homo sapiens) (UniProt P42684)
Sequence (P42684 whole entry): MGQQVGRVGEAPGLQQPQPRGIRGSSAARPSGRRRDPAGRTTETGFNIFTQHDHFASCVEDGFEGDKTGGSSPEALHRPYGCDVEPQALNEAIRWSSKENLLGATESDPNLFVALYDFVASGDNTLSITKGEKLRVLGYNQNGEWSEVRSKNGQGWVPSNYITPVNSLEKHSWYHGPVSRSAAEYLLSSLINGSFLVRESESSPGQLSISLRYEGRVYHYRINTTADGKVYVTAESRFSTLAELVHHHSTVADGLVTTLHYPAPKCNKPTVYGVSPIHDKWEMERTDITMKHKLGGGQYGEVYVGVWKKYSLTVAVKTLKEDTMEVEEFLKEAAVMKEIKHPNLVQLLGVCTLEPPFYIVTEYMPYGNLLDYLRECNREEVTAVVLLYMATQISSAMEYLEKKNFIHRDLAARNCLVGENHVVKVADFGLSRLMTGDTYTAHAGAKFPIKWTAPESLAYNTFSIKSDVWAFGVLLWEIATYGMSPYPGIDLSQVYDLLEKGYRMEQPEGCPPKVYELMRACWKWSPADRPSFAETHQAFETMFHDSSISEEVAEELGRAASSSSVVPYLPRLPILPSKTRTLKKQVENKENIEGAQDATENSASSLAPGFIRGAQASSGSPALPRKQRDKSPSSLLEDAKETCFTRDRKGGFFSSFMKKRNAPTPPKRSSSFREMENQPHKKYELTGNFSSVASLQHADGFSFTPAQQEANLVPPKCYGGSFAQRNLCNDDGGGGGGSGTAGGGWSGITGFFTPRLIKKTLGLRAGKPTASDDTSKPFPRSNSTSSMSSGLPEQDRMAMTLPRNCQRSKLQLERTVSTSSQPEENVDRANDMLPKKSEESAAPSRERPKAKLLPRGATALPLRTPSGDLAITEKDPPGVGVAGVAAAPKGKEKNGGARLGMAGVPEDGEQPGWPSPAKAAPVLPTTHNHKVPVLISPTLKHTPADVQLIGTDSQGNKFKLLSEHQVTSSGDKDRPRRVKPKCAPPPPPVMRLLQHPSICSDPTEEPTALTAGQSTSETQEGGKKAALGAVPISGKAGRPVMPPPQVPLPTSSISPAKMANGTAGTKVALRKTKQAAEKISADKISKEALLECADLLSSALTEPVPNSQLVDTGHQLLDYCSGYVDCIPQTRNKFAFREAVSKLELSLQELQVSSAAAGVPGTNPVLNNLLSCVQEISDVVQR
Settings: at 1 µM
Reported residual activity by item:
MEASURED METRIC: residual activity (%)

1) CCN(CC)C(=O)c1ccc(Nc2nc(OCC3CCCCC3)c3nc[nH]c3n2)cc1	52
2) Oc1ccc(Nc2nc(-c3ccc(Cl)cc3)cs2)cc1	101
3) O=c1cc(-c2cccc3c2Sc2ccccc2S3)oc(N2CCOCC2)c1	97
4) Cn1cnc2cc3c(Nc4cccc(Br)c4)ncnc3cc21	42
5) N#Cc1cnc2cnc(NCc3cccnc3)cc2c1Nc1ccc(F)c(Cl)c1	82
6) O=Nc1c(-c2c(O)[nH]c3ccccc23)[nH]c2ccccc12	30

* * *

Target: Mitogen-activated protein kinase 3 (Homo sapiens)
Conditions: at 1 µM
Description: Millipore: Percentage of residual kinase activity of MAPK3 at 1uM relative to control. Control inhibitor: ERK Inhibitor II at 30.0uM. Buffer: 25 mM Tris pH 7.5, 0.02 mM EGTA
Reported residual activity by item:
MEASURED METRIC: residual activity (%)

1. Cc1ccc(NC2=CC(=O)c3sc(C)nc3C2=O)cc1	102
2. NC(=O)c1ccc2[nH]c(-c3ccc(Oc4ccc(Cl)cc4)cc3)nc2c1	99
3. Cn1cnc2cc3c(Nc4cccc(Br)c4)ncnc3cc21	103
4. O=C(O)c1ccc2c3c1cccc3c(=O)n1c3ccccc3nc21	117
5. COc1ccc(S(=O)(=O)N(CCO)c2ccccc2CN(C)C/C=C/c2ccc(Cl)cc2)cc1	82
6. Cc1cncc2cccc(S(=O)(=O)N3CCCN(C(=O)CN)C[C@H]3C)c12	79
7. O=Nc1c(-c2c(O)[nH]c3ccccc23)[nH]c2ccccc12	114
8. O=C1NC(=O)c2cc(Nc3ccc(F)cc3)c(Nc3ccc(F)cc3)cc21	79
9. CC(=O)c1ccc(N2CCOCC2)cc1O	91
10. CNc1cc2c(Nc3cccc(Br)c3)ncnc2cn1	86

* * *

Target: Protein-tyrosine kinase 6 (Homo sapiens) (UniProt Q13882)
Sequence (Q13882 whole entry, looked up): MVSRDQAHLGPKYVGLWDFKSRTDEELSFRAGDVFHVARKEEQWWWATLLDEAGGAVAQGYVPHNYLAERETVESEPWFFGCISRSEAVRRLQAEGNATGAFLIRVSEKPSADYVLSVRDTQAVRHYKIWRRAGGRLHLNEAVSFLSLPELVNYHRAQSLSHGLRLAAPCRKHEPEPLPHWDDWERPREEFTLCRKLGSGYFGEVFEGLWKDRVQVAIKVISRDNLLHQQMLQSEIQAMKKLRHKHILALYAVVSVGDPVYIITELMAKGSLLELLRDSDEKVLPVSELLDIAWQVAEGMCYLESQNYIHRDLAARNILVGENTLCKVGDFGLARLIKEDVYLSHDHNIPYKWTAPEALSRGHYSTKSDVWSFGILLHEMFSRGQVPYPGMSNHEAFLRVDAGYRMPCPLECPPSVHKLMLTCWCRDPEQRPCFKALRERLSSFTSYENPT
Settings: at 10 µM
Reported residual activity by item:
MEASURED METRIC: residual activity (%)

1. COc1cc2ncnc(Nc3ccc(NC(=O)c4ccccc4)cc3)c2cc1OC	10
2. CNc1cc2c(Nc3cccc(Br)c3)ncnc2cn1	53
3. O=C1NC(=O)/C(=C/c2ccc3c(c2)OC(F)(F)O3)S1	104
4. Oc1n[nH]c2nnc(-c3c(-c4ccccc4)nn4ccccc34)cc12	87
5. Cc1nc2cc3nc(-c4cccs4)cnc3cc2n1C	98
6. Cc1ccc(S(=O)(=O)/C=C/C#N)cc1	106
7. Oc1ccc(Nc2nc(-c3ccc(Cl)cc3)cs2)cc1	102
8. CC(=O)O/N=C1\C(=C2\C(=O)Nc3cc(Br)ccc32)Nc2ccccc21	77
9. CC#CC(=O)Nc1cc2c(Nc3ccc(F)c(Cl)c3)ncnc2cn1	97
10. O=C(O)c1ccc2c3c1cccc3c(=O)n1c3ccccc3nc21	105
11. Oc1ccc(-c2nc(-c3ccc(F)cc3)c(-c3ccncc3)[nH]2)cc1	5
12. NC(=O)c1ccc2[nH]c(-c3ccc(Oc4ccc(Cl)cc4)cc3)nc2c1	103
13. Cc1cc2ncc(-c3ccccc3)nc2cc1C	101
14. COc1ccc(CNc2nc(N(CCO)CCO)nc3c2ncn3C(C)C)cc1	101
15. COc1cccc(-c2cc(=O)c3ccccc3o2)c1N	105
16. Nc1cccc(-c2cc3c(Oc4cccc(O)c4)ncnc3[nH]2)c1	0
17. O=C1Nc2ccccc2/C1=C1/Nc2ccccc2/C1=N\OCCC(O)CO (stereo unspecified)	53
18. O=Nc1c(-c2c(O)[nH]c3ccccc23)[nH]c2ccccc12	23
19. O=c1cc(-c2cccc3c2Sc2ccccc2S3)oc(N2CCOCC2)c1	96
20. Nc1ccc2ncnc(NCCc3ccc(Oc4ccccc4)cc3)c2c1	79
21. O=C1NC(=O)c2c1c1c3ccccc3[nH]c1c1[nH]c3cc(Br)ccc3c21	100
22. Ic1cccc(CSc2nnc(-c3ccncc3)o2)c1	96
23. CO[C@@H]1[C@H](N(C)C(=O)c2ccccc2)C[C@H]2O[C@]1(C)n1c3ccccc3c3c4c(c5c6ccccc6n2c5c31)C(=O)NC4	93
24. Cc1cccc(-c2[nH]c(C(C)(C)C)nc2-c2ccc3c(c2)OCO3)n1	102
25. Oc1c2ccccc2c2c3c(cccc13)N=N2	95
26. COc1cc2ncnc(Nc3ccc(Oc4ccccc4)cc3)c2cc1OC	4
27. c1ccc(-c2n[nH]cc2-c2ccnc3ccccc23)nc1	37
28. O=C1NC(=O)/C(=C\c2ccc3nccnc3c2)S1	103
29. Cc1nc(-c2ccccc2)c(-c2ccncc2)o1	43
30. Cn1cc(/C=C2\C(=O)Nc3ccc(S(N)(=O)=O)cc32)c2ccccc21	101
31. N#C/C(=C(\N)Sc1ccc(N)cc1)c1ccccc1C(F)(F)F	114
